Field: IC50. Provide a value for each of the molecules that follow.
tested on: HT-1080; assay: Inhibition of cell growth after irradiation at UVA dose of 6.5 J/cmE-2 in HT1080 human fibrosarcoma cell line; format: functional, cell-based; details: HT-1080, light or radiation study
Answer with a number only, understood to be in nM.

Give the reported IC50 for this molecule. O=c1ccc2ccc3occc3c2o1 [ANGELICIN]
2500

Give the reported IC50 for this molecule. Cc1cc2c(n1Cc1ccccc1)CCc1cc(C(=O)c3ccccc3)c(O)nc1-2
1900

Give the reported IC50 for this molecule. Cc1cc2c(n1C)CCc1cc(S(=O)(=O)c3ccccc3)c(O)nc1-2
16400

Give the reported IC50 for this molecule. COc1c2ccoc2cc2oc(=O)ccc12 [BERGAPTEN]
900

Give the reported IC50 for this molecule. Cc1cc2c(n1-c1ccccc1)CCc1cc(S(=O)(=O)c3ccccc3)c(O)nc1-2
400

Give the reported IC50 for this molecule. Cc1cc2c(n1-c1ccccc1)CCc1cc(C(=O)c3ccccc3)c(O)nc1-2
1700

Give the reported IC50 for this molecule. Cc1cc2c(n1Cc1ccccc1)CCc1cc(S(=O)(=O)c3ccccc3)c(O)nc1-2
1800

Give the reported IC50 for this molecule. COc1c2occc2cc2ccc(=O)oc12 [METHOXSALEN]
1500

Give the reported IC50 for this molecule. Cc1cc2c(n1-c1ccccc1)CCc1cc(C#N)c(O)nc1-2
11100
